I'd be grateful if you could share measured pEC50 for these entries.
- Test system: IP10 level in PBMCs stimulated with CpG Type A
- assayOverview: PBMC IP-10 Assay
- Type: cell-based
- experimentalConditions: CpG Type A 2.5 μM
Numbers only, as −log10 of the molar value.

- molecule: "CCCC[C@H](NC(=O)[C@H](Cc1c[nH]c2ccccc12)NC(=O)[C@H](C)NC(=O)C1=C(C)c2ccccc2C1)C(=O)C(=O)N[C@H](C)c1ccccc1"
  pEC50: 5.75
- molecule: "CCCC[C@H](NC(=O)[C@H](Cc1c[nH]c2ccccc12)NC(=O)[C@H](C)NC(=O)c1cccc(Cl)c1Cl)C(=O)C(=O)NCc1ccccc1"
  pEC50: 5.58
- molecule: "COc1ccc(C[C@H](NC(=O)[C@H](C)NC(=O)C2=C(C)c3ccccc3C2)C(=O)N[C@@H](Cc2ccccc2)C(=O)C(=O)NCc2ccccc2)cc1"
  pEC50: 5.97
- molecule: "COc1ccc(C[C@H](NC(=O)[C@@H](NC(=O)C2Cc3ccccc3C2)C2CC2)C(=O)N[C@@H](Cc2ccccc2)C(=O)C(=O)NCc2ccccc2)cc1"
  pEC50: 6.69
- molecule: "COCCNC(=O)C(=O)[C@H](Cc1ccccc1)NC(=O)[C@H](Cc1c[nH]c2ccccc12)NC(=O)[C@H](C)NC(=O)OCc1ccccc1"
  pEC50: 5.86

Proceeding to the next molecule to report its pEC50.
Qu. Name the recorded pEC50 for C[C@H](NC(=O)OCc1ccccc1)C(=O)NC(CC1CCOCC1)C(=O)N[C@@H](Cc1ccccc1)C(=O)C(=O)NCc1ccccc1 (stereo partly drawn) .
Ans. 5.49

---

- systemUnderTest: β5c (Homo sapiens, UniProt P20618+P28074)
- Construct: protease activity associated with the proteasome complex in cultured cells; endogenous in cells
- assayOverview: Cell-Based Proteasome Activity/Selectivity Assay (Ramos cells), substrate (WLA)2Rh110
- experimentalConditions: highest concentration tested 20 μM
Define the label as yes when IC50 is strictly less than 4 µM and as no in all remaining cases.

Worked examples follow.
- itemSmiles: "COc1ccc(C[C@H](NC(=O)[C@H](C)NC(=O)CN2CCOCC2)C(=O)N[C@@H](Cc2ccccc2)C(=O)C(=O)NCc2ccccc2)cc1"
  classLabel: "no"
- itemSmiles: "COC[C@H](NC(=O)C1Cc2ccccc2C1)C(=O)N[C@@H](Cc1ccc(OC)cc1)C(=O)N[C@@H](Cc1ccccc1)C(=O)C(=O)NCc1ccccc1"
  classLabel: "yes"
- itemSmiles: "C[C@H](NC(=O)OCc1ccccc1)C(=O)N[C@@H](Cc1ccc(Cl)cc1)C(=O)N[C@@H](Cc1ccccc1)C(=O)C(=O)NCc1ccccc1"
  classLabel: "no"
- itemSmiles: "C[C@H](NC(=O)OCc1ccccc1)C(=O)N[C@@H](Cc1c[nH]c2ccccc12)C(=O)N[C@@H](Cc1ccccc1)C(=O)C(=O)NC1CC1"
  classLabel: "yes"

For the next question, use this compound.
Qu. Could you please tell me whether IC50 recorded for `C[C@H](NC(=O)C1Cc2ccccc2C1)C(=O)N[C@@H](Cc1ccccc1)C(=O)N[C@@H](Cc1ccccc1)C(=O)C(=O)NCc1ccccc1` is less than 4 µM?
Ans. yes

---

- systemUnderTest: β1i (Homo sapiens, UniProt P28065+P40306)
- Construct: protease activity associated with the proteasome complex in cultured cells; endogenous in cells
- assayOverview: Cell-Based Proteasome Activity/Selectivity Assay (Ramos cells), substrate (PAL)2Rh110
- experimentalConditions: highest concentration tested 20 μM
pIC50: −log10 of the molar value.
// class 0 strictly below 6 in pIC50; class 1 otherwise

- itemSmiles: "CCn1nccc1C(=O)N[C@@H](C)C(=O)N[C@@H](Cc1ccccc1)C(=O)N[C@@H](Cc1ccccc1)C(=O)C(=O)NCc1ccccc1"
  systemUnderTest: "β1i (Homo sapiens, UniProt P28065+P40306)"
  classLabel: "class 1"

Qu. Record `COCCNC(=O)C(=O)[C@H](Cc1ccccc1)NC(=O)[C@H](Cc1c[nH]c2ccccc12)NC(=O)[C@H](C)NC(=O)OCc1ccccc1` ; criterion: pIC50 no lower than 6. Met?
Ans. class 1
